- assayedSystem: LNX1_1, Q8TBB1
- Sequence (Q8TBB1 261-371): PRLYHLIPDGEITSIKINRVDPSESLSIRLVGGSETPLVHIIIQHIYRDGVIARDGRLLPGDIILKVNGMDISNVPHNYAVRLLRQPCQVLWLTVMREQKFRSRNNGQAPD
- protocol: holdup assay
- Design: key: below the threshold = too weak to quantify, mostly under pKd 3.1 to 4
- protocolConditions: plain residues with an end cap or a label only (N-terminal biotin on a linker: ado-ado)
readoutKind: pKd

* EFKQTSSFLV [JAM1, Q9Y624] | 3.6
* PEKVSNTTVV [IGSF5, Q9NSI5] | 3.67
* QKNKDREYYV [NRXN3, Q9HDB5] | 3.65

Entry source: paper PMC9482650
